biological target: Lysine-specific demethylase 5B (Homo sapiens) (UniProt Q9UGL1); test: Primary screen for KDM5B Histone Demethylases FDH-coupled qHTS; details: FDH-coupled NADH fluorescence; series mostly up to 57.7 µM; further: nearly all actives have a fitted effect of over 70% in size
Sequence (Q9UGL1 whole entry, looked up): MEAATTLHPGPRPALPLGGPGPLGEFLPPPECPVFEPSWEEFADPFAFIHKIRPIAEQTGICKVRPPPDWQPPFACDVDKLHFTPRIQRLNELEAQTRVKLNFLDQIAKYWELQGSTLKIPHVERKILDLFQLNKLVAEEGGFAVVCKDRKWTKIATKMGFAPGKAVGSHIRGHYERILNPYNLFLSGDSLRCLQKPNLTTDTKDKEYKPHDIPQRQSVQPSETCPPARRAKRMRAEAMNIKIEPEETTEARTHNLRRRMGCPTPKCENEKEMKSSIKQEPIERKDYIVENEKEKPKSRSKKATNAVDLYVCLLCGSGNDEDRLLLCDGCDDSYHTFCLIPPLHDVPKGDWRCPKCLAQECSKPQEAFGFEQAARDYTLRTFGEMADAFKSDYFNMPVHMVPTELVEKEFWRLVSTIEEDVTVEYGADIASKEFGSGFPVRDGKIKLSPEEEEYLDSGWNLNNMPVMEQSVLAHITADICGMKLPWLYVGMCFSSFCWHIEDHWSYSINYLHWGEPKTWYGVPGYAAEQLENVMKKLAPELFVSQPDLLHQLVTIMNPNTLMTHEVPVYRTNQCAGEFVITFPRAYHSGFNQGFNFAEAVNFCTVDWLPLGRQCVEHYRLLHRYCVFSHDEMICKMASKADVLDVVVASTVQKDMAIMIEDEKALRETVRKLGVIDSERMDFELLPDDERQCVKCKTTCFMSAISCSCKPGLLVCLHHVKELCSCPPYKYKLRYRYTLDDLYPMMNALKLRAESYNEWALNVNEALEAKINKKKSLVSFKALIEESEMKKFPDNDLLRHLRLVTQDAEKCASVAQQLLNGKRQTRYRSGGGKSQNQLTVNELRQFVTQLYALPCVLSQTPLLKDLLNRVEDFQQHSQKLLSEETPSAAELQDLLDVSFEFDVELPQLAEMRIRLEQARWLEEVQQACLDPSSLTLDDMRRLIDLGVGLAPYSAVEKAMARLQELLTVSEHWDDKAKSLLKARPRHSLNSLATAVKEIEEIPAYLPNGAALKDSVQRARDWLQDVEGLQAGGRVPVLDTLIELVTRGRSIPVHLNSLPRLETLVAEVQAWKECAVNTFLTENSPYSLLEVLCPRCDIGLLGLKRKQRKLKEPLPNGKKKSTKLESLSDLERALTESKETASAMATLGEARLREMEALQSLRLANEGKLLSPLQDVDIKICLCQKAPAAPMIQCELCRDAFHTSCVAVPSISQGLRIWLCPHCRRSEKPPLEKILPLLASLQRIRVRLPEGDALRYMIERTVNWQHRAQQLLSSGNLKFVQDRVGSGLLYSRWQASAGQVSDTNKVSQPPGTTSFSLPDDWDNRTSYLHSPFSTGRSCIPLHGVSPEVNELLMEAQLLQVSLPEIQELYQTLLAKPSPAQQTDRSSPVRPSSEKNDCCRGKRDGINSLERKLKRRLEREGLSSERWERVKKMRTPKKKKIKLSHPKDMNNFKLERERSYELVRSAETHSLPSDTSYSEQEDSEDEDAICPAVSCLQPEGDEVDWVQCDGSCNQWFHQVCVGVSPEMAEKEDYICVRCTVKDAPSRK
Among all 220,000 compounds or so, about 5,700 (2.6%) were called active. About 18% were inconclusive and are not listed. The call rests on the fitted dose curve; in most records, active means well fitted inhibition curve with a large enough effect; inconclusive means small, poorly fitted or top-dose-only effect; inactive means no such curve, though single readings can be large or run the other way. The list comes from a sample in which actives are over-represented; it also holds close analogues and randomly drawn compounds.
Entry note: the call must match one of TRUE (active), FALSE (inactive)

These solved cases illustrate the format of a correct answer.
1) O=S(=O)(N[C@@H]1CCOC[C@H]1Oc1ccccn1)c1ccc(Cl)s1; FALSE
2) CC(C)=CC(=O)N1C[C@@H](NC(=O)Nc2ccc(F)cc2F)C[C@H]1C(=O)N[C@H](Cc1ccccc1)C(N)=O; FALSE
3) Cc1nc2scc(CC(=O)NC(C)C)n2c(=O)c1-c1cc(C)n(-c2cccc(Cl)c2)n1; TRUE
4) O=C(N[C@@H]1CCOC[C@H]1Oc1ccccn1)c1cc(C2CC2)no1; FALSE

Alright, here's another compound for you.
GET /call?item= N#Cc1ccc(O[C@@H]2COCC[C@H]2NC(=O)CCCn2cccn2)cc1 returns the recorded outcome of this test.
FALSE

----------
target: Lysine-specific demethylase 5B (Homo sapiens) (UniProt Q9UGL1); assay: Primary screen for KDM5B Histone Demethylases FDH-coupled qHTS; conditions: FDH-coupled NADH fluorescence; series mostly up to 57.7 µM; further: nearly all actives have a fitted effect of over 70% in size
The whole screen tested about 220,000 compounds, of which about 5,700 (2.6%) were called active. About 18% were inconclusive and are not listed. Calls come from the whole dose curve; as a rule, active = well fitted inhibition curve with a large enough effect; inconclusive = small, poorly fitted or top-dose-only effect; inactive = no such curve, though single readings can be large or run the other way. For the sample, actives were picked, then their nearest neighbours and some compounds at random.
Write down the outcome that applies. Available outcomes: 1.0 for active, 0.0 for inactive

These recorded examples may help you get a feel for the data.
1) COCCNC(=O)c1cc(-c2cccc(Cl)c2)on1; 0.0
2) COc1ccccc1C(=O)NCCC(=O)N(C)Cc1cccnc1; 0.0
3) O=C(NCc1ccc(F)cc1)c1nc(-c2ccccc2)c2ccccn12; 1.0

How was CSc1ccccc1NC(=O)c1ccc(C)c(C)c1 classified in this test?
0.0

Hi, do you know how Cc1nc(-c2ccccc2)n(CC(=O)NCc2ccc(F)cc2)c(=O)c1CCO came out in this test?
0.0

----------
target: Lysine-specific demethylase 5B (Homo sapiens); assay: Primary screen for KDM5B Histone Demethylases FDH-coupled qHTS; details: FDH-coupled NADH fluorescence (FDH is formaldehyde dehydrogenase); series mostly up to 57.7 µM; further: nearly all actives have a fitted effect of over 70% in size; further: potency means the concentration at half of the fitted maximal effect
In all, about 220,000 compounds went through this assay and about 5,700 (2.6%) were called active. About 18% were inconclusive and are not listed. The sample as a whole holds a higher share of actives than the screen did.
reported property: Potency

1) COc1ccc(C2=NOC(C(=O)Nc3cc(C)nn3-c3ccccc3)C2)cc1 (configuration not stated); inactive
2) O=C(CCc1cccs1)N(CC1CCOC1)C1CC1 (configuration not stated); inactive
3) COc1ccccc1CN1CCC(N2CCN(c3ccccc3OC)CC2)CC1; inactive
4) COc1cccc(/C=C2\C=C(c3ccc(C)cc3)OC2=O)c1OC(C)=O; inactive
5) Cc1cccnc1NC(=O)C1c2ccccc2C(=O)N(C2CCCC2)C12CCCC2 (configuration not stated); 15.8 µM (active)
6) Oc1ccccc1CN1C[C@H](O)C[C@H]1c1nc(Cc2ccc(F)cc2Cl)no1; inactive
7) CCOc1cc(C2CC(=O)NC(SCC(=O)OC)=C2C#N)ccc1O (configuration not stated); inactive
8) C=CCOc1cccc(NC(=O)c2ccccc2Cl)c1; inactive
9) COc1ccccc1CN1CC[C@@H](CO)N(C)c2ncccc2C1; 31.6 µM (active)
10) N#CC1(NC(=O)COC(=O)CCN=C2NS(=O)(=O)c3ccccc32)CCCCC1; inactive

Reported Potency, molecule Cc1noc(C)c1-c1cnc2[nH]cc(CC(=O)N3CCOCC3)c2c1 : ____
35.5 µM (active)

Look up Potency: O=C1Nc2ccccc2CC12CCN(CC1CC1)C2 (configuration not stated)
inactive

Could you share which Potency value was measured for COc1ccccc1-c1noc(COC(=O)c2ccc3c(c2)NC(=O)CS3)n1 ?
inactive

Bench note: what Potency did CCc1ccc(N(CC)C(=O)C(=O)c2c[nH]c3ccccc23)cc1 show?
inactive

Value lookup for Potency; key = CC(C)NC(=O)Nc1ccc(CNC(=O)C2(C#N)CCCC2)cc1
inactive

Find the recorded Potency belonging to O=[N+]([O-])c1cccc(-c2noc([C@@H]3C[C@@H](O)CN3Cc3cccc(OC(F)(F)F)c3)n2)c1 and report it.
inactive
